Would you mind telling me the reported Inhibition of each entry?
test system: HepG2; assay: GSK_TCMDC: Percent inhibition of human HepG2 cell line. Test compounds present at 10uM.; type: functional
Supply the numeric figure in %, leaving out any unit text.

// Inhibition lookup, molecule = "Cc1cccc2nc(-c3cccc(-c4ccc(NC(=O)Nc5ccsc5)cc4)c3)[nH]c12" , result: 27

// Inhibition lookup, molecule = CC1CN(c2ccc(C(=O)NCC3CC3)cc2NC(=O)OCc2ccccc2)CC(C)O1.O=C(O)C(F)(F)F (configuration not stated) , result: 0

// Inhibition lookup, molecule = "O=C(O)C(F)(F)F.O=[N+]([O-])c1cccc(CNCC2CCN(Cc3ccc4ccccc4c3)CC2)c1" , result: 18

// Inhibition lookup, molecule = "FC(F)(F)c1ccc2[nH]c(-c3cccc(-c4cccc(CNCc5cnn(-c6ccccc6)n5)c4)c3)nc2c1.O=C(O)C(F)(F)F" , result: 6

// Inhibition lookup, molecule = "COc1cc(C2CCN(CCCCNC(=O)c3ccc(NC(=O)c4cc(C(F)(F)F)cc(C(F)(F)F)c4)cc3)CC2)ccc1OC(C)C" , result: 21

// Inhibition lookup, molecule = CN(c1ccc(NC(=O)c2ccc(F)cc2)cc1)C1CCN(Cc2cccc(F)c2)C1.O=C(O)C(F)(F)F (configuration not stated) , result: 3

// Inhibition lookup, molecule = "Cc1cc(O)c(-c2cccc(Oc3ccc(Cl)cc3)c2)c(C)n1" , result: 0

// Inhibition lookup, molecule = "CC(C)(CN)c1cc(-c2ccc(Cl)c(O)c2)c(-c2ccncc2)o1.Cl" , result: 44

// Inhibition lookup, molecule = "Cc1[nH]c2ccc(C#N)cc2c(=O)c1Br" , result: 2

// Inhibition lookup, molecule = Br.C=CCN1Cc2c(O)cccc2C(c2ccc(O)c(O)c2)C1 (configuration not stated) , result: 0

// Inhibition lookup, molecule = "Fc1cccc(COc2ccc(Nc3ncnc4sc(C#CCNC5CCC5)cc34)cc2Cl)c1" , result: 15

// Inhibition lookup, molecule = CN(CC1CCC(NC(=O)/C=C/c2ccc(Cl)c(Cl)c2)CC1)C1CCC(c2c[nH]c3ccccc23)CC1 (configuration not stated) , result: 53

// Inhibition lookup, molecule = "CCCCNC(=N)Nc1ccc(OCCCOc2ccc(NC(=N)NCCCC)cc2)cc1" , result: 15

// Inhibition lookup, molecule = "CC(=O)NCCNc1nccc(N2CCc3ncnc(Nc4ccc(OCc5ccccn5)c(Cl)c4)c3C2)n1" , result: 0

// Inhibition lookup, molecule = "O=S(=O)(c1cccc2cccnc12)N1CCN(C2CCCCC2)CC1" , result: 15

// Inhibition lookup, molecule = "Cc1cc(N[C@@H](Cc2ccccc2)C(=O)NCCCOC(C)C)nc(NCCc2ccc(F)cc2)n1.O=C(O)C(F)(F)F" , result: 15

// Inhibition lookup, molecule = "COc1ccc(-c2cnc3ccc(NCc4ccc(F)cc4)nn23)cc1OC" , result: 35

// Inhibition lookup, molecule = "COc1ccc2nccc([C@@H](O)CN3CCC(c4cc(-c5ccc(Cl)cc5)[nH]n4)CC3)c2n1" , result: 43

// Inhibition lookup, molecule = "CCCCOc1c(CCNCCCCNCCc2cc(F)c3ccccc3c2OCCCC)cc(F)c2ccccc12.CS(=O)(=O)O" , result: 97

// Inhibition lookup, molecule = "Cc1ccc(NC(=O)c2ccc3nccnc3c2)cc1OC1CCN(Cc2ccc(F)cc2)CC1.O=C(O)C(F)(F)F" , result: 16

// Inhibition lookup, molecule = "CC[C@H](N/C(=N\c1ccc(-c2ccccc2)cc1)Nc1ccc(C#N)cc1O)c1ccccc1" , result: 0

// Inhibition lookup, molecule = "Cc1cc(=NN=CC=Cc2ccccc2)c2ccc(F)cc2[nH]1" , result: 14

// Inhibition lookup, molecule = "CCOC(=O)c1ccc(NC(=O)c2ccccc2C(=O)O)cc1" , result: 2

// Inhibition lookup, molecule = "CCCc1cc(NCC)nc(Nc2ccc(F)cc2)n1" , result: 16

// Inhibition lookup, molecule = "COc1ccc(C(=O)Nc2cc(Br)c3c(c2)CNCC3)cc1Br.Cl" , result: 25

// Inhibition lookup, molecule = "O=C(Nc1ccc(Cl)cc1C(=O)Nc1ccncc1)c1ccc(Cl)cc1Cl" , result: 8

// Inhibition lookup, molecule = COc1ccc(CN2CCC(N3CCc4cc(NC(=O)c5cc(C)on5)ccc43)C2)cc1Cl (configuration not stated) , result: 15

// Inhibition lookup, molecule = CN(Cc1cccc(O)c1)C1CCCN(c2cc(NC(=O)c3ccc(F)cc3)ccn2)C1.O=C(O)C(F)(F)F (configuration not stated) , result: 8

// Inhibition lookup, molecule = "Cc1cc(Nc2ccc(C)c(Cl)c2)n2ncnc2n1" , result: 6

// Inhibition lookup, molecule = "CN(Cc1ccc(-c2ccc(C(F)(F)F)cc2)cc1)C(=O)Cn1c(CCc2cccc(F)c2F)nc(=O)c2ccc(N3CCN(CCN4CCCCC4)CC3)nc21.O=C(O)C(O)C(O)C(=O)O" , result: 100

// Inhibition lookup, molecule = "NC(=O)C1CCN(Cc2ccc(-c3ccc(-c4nc5cc(F)ccc5[nH]4)cc3)cc2)CC1.O=C(O)C(F)(F)F" , result: 12

// Inhibition lookup, molecule = "Cc1cccc2nc(-c3ccc(-c4ccc(NC(=O)Nc5ccc(Cl)cc5)cc4)cc3)[nH]c12" , result: 52

// Inhibition lookup, molecule = "Cc1noc(C)c1-c1cccc(CNCc2ccc(-c3cccc(-c4nc5cc(F)ccc5[nH]4)c3)cc2)c1.O=C(O)C(F)(F)F" , result: 37

// Inhibition lookup, molecule = "CS(=O)(=O)CCNCc1nc(-c2ccc3ncnc(Nc4ccc(OCc5cccc(F)c5)c(Cl)c4)c3c2)cs1.Cl" , result: 8

// Inhibition lookup, molecule = "Cn1cncc1-c1ccc2ncnc(Nc3ccc4c(cnn4Cc4ccccc4)c3)c2c1" , result: 1

// Inhibition lookup, molecule = "CCCCN(CCCC)CCCCNc1c2ccccc2nc2ccccc12.Cl" , result: 36

// Inhibition lookup, molecule = "Cc1noc(C)c1-c1cccc(CNCc2ccc(-c3ccc(-c4nc5cccc(C)c5[nH]4)cc3)cc2)c1.O=C(O)C(F)(F)F" , result: 28
